Molecular target: human sGC with ferric heme (Fe3+-sGC) (Homo sapiens)
Sequence (Q02153 whole entry): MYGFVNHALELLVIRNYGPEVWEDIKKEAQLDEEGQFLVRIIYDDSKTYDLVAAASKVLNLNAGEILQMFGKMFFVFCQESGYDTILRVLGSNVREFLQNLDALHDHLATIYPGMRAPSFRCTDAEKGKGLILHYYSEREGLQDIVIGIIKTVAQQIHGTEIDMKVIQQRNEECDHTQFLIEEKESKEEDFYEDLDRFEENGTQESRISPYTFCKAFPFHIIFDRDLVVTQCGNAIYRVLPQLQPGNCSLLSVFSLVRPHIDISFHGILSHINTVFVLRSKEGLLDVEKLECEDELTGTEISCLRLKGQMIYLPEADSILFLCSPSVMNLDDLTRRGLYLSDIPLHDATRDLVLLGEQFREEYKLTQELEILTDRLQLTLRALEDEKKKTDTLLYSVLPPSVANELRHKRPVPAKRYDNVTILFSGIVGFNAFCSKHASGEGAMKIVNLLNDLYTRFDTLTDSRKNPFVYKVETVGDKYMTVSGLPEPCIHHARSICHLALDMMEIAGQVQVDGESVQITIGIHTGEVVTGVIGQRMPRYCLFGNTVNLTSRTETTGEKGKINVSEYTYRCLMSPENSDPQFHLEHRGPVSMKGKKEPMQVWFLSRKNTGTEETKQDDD
Sequence (Q02108 whole entry partner): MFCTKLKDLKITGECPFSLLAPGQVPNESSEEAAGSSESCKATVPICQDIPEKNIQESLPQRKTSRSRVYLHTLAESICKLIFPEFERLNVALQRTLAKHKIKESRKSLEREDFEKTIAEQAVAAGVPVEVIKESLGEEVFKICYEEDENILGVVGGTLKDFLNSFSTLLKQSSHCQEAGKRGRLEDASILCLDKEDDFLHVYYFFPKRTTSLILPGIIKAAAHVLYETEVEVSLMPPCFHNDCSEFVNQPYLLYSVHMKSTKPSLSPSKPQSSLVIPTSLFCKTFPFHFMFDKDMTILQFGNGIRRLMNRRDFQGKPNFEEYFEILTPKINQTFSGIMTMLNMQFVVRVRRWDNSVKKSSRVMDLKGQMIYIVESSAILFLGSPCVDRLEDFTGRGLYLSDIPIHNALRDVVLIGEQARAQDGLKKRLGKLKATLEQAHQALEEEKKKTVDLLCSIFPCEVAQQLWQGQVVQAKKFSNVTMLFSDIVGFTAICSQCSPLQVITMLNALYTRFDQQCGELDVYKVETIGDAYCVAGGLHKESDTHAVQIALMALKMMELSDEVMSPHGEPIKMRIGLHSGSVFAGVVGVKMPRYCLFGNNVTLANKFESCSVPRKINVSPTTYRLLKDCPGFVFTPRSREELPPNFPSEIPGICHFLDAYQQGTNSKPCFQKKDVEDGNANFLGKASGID
Test: cGMP-forming activity of purified sGC with ferric heme
Type: biochemical
Conditions: dose-dependent activation of sGC with ferric heme, Fig. 3
Property Name: shape of the activation curve

# example entries with known answers
[
  {
    "Molecule": "Cc1ccc(C)c(OCCCCC(=O)O)c1",
    "Property Name": "shape of the activation curve",
    "Result": "typical S-shaped pattern"
  },
  {
    "Molecule": "Cc1ccc(C)c(OCCCCCC(=O)O)c1",
    "Property Name": "shape of the activation curve",
    "Result": "typical S-shaped pattern"
  },
  {
    "Molecule": "CCCCCCC(CCCOc1cc(C)ccc1C)C(=O)O (stereo not drawn) [Compound 15b]",
    "Property Name": "shape of the activation curve",
    "Result": "bell-shaped curve"
  },
  {
    "Molecule": "Cc1ccc(C)c(NCCCC(C)(C)C(=O)O)c1",
    "Property Name": "shape of the activation curve",
    "Result": "typical S-shaped pattern"
  },
  {
    "Molecule": "Cc1ccc(C(C)C)c(OCCCC(C)(C)C(=O)O)c1",
    "Property Name": "shape of the activation curve",
    "Result": "bell-shaped curve"
  }
]

Given the entry "Cc1ccc(C)c(N(CCCC(C)(C)C(=O)O)C(=O)CCCCC(=O)N(CCCC(C)(C)C(=O)O)c2cc(C)ccc2C)c1" , what shape of the activation curve was observed with human sGC with ferric heme (Fe3+-sGC) (Homo sapiens)? typical S-shaped pattern
